# targetEntity: Fibroblast growth factor receptor 1 (Homo sapiens, UniProt P11362)
# procedureText: Ba/F3 cell proliferation (WST-1), FGFR1
# Parameters: expressed in transfected cells; host or cells: Ba/F3 (general description; not repeated for this kinase)
# testParameters: Ba/F3 cells expressing the enzyme, read-out: Cell-based assay IC50, Fibroblast growth factor receptor 1
measuredEndpoint: IC50 (µM)

[[record]]
molecule = "CS(=O)(=O)O.CS(=O)(=O)O.Cc1ccc(NC(=O)c2ccc(CN3CCN(C)CC3)cc2)cc1Nc1nc(-c2cccnc2)cs1 [masitinib]"
measuredendpoint = "IC50"
endpointvalue = 7


====

# targetEntity: VEGFR2 (Homo sapiens, UniProt P35968)
# Sequence (P35968 20-1356): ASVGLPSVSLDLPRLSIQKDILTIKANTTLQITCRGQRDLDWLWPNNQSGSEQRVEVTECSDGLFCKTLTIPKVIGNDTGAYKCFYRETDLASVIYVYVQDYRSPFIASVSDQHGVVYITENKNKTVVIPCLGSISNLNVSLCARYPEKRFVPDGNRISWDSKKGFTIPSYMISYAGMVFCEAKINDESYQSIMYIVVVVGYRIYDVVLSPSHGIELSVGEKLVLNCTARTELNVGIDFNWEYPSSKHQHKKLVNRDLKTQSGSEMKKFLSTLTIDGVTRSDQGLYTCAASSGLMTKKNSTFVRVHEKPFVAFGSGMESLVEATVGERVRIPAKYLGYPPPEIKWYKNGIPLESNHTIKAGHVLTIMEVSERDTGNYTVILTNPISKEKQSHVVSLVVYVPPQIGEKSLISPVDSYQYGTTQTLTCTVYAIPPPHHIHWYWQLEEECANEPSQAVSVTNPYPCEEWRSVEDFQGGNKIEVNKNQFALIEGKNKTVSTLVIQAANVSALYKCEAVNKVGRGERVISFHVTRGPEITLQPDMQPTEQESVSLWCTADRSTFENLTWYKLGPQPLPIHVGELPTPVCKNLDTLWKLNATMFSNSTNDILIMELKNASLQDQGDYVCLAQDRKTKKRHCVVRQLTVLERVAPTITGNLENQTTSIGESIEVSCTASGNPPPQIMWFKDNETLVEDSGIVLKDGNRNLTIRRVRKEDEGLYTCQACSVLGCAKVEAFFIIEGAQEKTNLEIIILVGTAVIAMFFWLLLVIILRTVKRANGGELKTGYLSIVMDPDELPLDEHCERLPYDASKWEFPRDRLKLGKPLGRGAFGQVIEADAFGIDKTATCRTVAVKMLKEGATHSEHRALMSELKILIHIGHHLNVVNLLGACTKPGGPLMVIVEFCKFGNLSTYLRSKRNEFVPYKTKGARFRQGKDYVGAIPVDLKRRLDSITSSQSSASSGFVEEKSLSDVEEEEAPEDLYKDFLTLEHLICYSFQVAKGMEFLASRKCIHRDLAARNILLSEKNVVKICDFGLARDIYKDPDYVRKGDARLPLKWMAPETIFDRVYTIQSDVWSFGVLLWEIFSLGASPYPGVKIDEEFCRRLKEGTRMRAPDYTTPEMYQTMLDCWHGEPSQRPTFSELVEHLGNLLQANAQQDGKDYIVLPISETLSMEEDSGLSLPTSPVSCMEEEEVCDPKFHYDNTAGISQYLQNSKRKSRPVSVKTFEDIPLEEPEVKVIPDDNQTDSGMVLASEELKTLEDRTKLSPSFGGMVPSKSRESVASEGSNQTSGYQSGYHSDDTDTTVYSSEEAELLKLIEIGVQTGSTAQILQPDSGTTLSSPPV
# procedureText: Recombinant kinase ELISA assay, VEGFR2
# testParameters: recombinant human enzyme; ELISA-based assay, poly(Glu,Tyr 4:1) substrate
# From the text: Full details for the generation of recombinant human KIT intracellular domain and other protein kinases (including Lyn, platelet derived growth factor receptor β, epidermal growth factor receptor, fibroblast growth factor receptor 1, Src, HCK, PYK, FES, Btk, Bmx, c-Ret, c-Fms, Syk, and c-Met) are provided in the Supplemental Methods (see Supporting Information; Methods S1). […]
measuredEndpoint: IC50

[[record]]
smilesentry = "CS(=O)(=O)O.CS(=O)(=O)O.Cc1ccc(NC(=O)c2ccc(CN3CCN(C)CC3)cc2)cc1Nc1nc(-c2cccnc2)cs1"
targetentity = "VEGFR2 (Homo sapiens, UniProt P35968)"
endpointvalue = "> 10 µM"


====

# targetEntity: KIT Δ27 (murine) (Mus musculus, UniProt P05532, DEL551-559)
# procedureText: Ba/F3 cell proliferation (WST-1), KIT Δ27
# testParameters: Ba/F3 cells expressing the enzyme, read-out: Cell-based assay IC50, KIT Δ27 (murine)
pIC50: −log10 of the molar value.
measuredEndpoint: pIC50

[[record]]
molecule = "CS(=O)(=O)O.CS(=O)(=O)O.Cc1ccc(NC(=O)c2ccc(CN3CCN(C)CC3)cc2)cc1Nc1nc(-c2cccnc2)cs1 [masitinib]"
measuredendpoint = "pIC50"
endpointvalue = 8.30


====

# targetEntity: c-Met (Homo sapiens)
# Construct: c-Met (949–1398); 6xHN (N)
# Sequence (P08581 949-1390 limits assumed): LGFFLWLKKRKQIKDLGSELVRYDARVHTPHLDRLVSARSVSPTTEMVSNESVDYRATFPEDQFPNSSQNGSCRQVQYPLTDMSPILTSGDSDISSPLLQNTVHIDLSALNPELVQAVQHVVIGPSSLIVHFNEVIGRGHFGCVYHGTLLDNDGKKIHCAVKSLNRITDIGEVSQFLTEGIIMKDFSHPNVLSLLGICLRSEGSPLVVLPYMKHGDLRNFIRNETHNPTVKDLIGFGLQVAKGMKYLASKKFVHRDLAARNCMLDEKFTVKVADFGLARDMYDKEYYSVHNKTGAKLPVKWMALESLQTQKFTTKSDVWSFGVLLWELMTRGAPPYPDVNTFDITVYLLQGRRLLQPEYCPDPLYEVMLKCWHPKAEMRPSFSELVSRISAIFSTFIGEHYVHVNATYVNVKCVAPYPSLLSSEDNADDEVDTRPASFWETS
# procedureText: Recombinant kinase ELISA assay, c-Met
# testParameters: recombinant human enzyme; ELISA-based assay, poly(Glu,Tyr 4:1) substrate
pIC50: −log10 of the molar value.
measuredEndpoint: pIC50

[[record]]
compound = "CS(=O)(=O)O.CS(=O)(=O)O.Cc1ccc(NC(=O)c2ccc(CN3CCN(C)CC3)cc2)cc1Nc1nc(-c2cccnc2)cs1 [masitinib]"
endpointvalue = "< 5.00"


====

# targetEntity: c-Ret (Homo sapiens)
# Construct: expressed in transfected cells; host or cells: Ba/F3 (general description; not repeated for this kinase)
# Sequence (P07949 29-1114): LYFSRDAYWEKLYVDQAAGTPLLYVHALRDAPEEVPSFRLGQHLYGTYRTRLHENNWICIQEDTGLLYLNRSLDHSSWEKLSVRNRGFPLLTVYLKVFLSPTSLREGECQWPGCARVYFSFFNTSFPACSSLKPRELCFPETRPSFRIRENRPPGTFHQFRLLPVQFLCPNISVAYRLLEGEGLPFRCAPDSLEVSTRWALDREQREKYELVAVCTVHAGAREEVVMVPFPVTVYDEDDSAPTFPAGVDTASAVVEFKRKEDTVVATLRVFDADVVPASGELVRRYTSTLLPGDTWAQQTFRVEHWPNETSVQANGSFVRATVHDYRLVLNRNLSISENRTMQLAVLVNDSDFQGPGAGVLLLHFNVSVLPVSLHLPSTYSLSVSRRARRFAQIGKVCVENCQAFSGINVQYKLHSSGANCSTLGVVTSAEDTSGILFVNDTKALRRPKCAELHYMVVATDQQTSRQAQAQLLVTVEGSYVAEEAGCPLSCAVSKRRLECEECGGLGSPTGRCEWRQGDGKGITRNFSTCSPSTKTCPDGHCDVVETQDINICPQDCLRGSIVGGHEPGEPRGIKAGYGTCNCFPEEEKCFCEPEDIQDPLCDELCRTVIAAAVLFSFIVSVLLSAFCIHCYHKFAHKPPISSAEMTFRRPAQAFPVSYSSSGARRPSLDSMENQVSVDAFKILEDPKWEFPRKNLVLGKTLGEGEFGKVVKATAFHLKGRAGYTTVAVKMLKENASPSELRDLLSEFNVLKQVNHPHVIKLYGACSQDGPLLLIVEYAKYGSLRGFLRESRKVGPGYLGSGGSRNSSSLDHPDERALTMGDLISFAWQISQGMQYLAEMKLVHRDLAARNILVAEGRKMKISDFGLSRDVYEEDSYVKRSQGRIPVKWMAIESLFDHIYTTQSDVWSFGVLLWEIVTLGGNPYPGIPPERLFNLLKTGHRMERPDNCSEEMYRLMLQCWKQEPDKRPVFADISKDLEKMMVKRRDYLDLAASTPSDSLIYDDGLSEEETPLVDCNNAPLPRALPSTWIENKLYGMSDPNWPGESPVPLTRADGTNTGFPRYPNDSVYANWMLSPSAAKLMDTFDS
# procedureText: Ba/F3 cell proliferation (WST-1), c-Ret
# testParameters: Ba/F3 cells expressing the enzyme, read-out: Cell-based assay IC50, c-Ret
measuredEndpoint: IC50 (µM)

[[record]]
smilesentry = "CS(=O)(=O)O.CS(=O)(=O)O.Cc1ccc(NC(=O)c2ccc(CN3CCN(C)CC3)cc2)cc1Nc1nc(-c2cccnc2)cs1"
measuredendpoint = "IC50"
unitstext = "µM"
endpointvalue = 8


====

# targetEntity: Focal adhesion kinase (Homo sapiens, UniProt Q05397)
# Sequence (Q05397 whole entry): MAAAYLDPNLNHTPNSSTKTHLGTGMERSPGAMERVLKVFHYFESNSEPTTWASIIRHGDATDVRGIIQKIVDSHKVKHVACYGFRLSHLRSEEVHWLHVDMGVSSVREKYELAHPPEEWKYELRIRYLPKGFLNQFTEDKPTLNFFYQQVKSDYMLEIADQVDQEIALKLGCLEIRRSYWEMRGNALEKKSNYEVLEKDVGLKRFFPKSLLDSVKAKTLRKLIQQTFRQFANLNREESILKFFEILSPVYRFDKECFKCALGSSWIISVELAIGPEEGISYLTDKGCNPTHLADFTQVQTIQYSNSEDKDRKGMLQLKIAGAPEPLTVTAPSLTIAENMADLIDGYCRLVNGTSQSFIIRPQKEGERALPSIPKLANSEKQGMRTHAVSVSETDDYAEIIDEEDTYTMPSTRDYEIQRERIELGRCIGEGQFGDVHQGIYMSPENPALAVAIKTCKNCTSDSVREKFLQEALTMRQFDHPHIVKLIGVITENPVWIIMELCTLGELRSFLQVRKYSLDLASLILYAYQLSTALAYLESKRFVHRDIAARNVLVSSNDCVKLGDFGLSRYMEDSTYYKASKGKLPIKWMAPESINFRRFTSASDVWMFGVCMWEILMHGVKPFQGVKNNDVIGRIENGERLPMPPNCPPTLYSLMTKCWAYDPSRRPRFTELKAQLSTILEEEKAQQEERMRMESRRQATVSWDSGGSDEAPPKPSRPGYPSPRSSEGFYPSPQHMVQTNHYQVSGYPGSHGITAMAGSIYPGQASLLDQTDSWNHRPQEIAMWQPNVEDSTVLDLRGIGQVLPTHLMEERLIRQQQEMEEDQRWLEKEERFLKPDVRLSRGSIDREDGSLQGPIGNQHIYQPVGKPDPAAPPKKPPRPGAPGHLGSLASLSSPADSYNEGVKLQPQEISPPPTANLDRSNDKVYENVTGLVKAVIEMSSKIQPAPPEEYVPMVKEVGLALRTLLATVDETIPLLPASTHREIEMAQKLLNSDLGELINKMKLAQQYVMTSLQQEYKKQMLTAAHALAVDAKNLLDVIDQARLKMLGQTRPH
# procedureText: Recombinant kinase ELISA assay, focal adhesion kinase
# testParameters: recombinant human enzyme; ELISA-based assay, poly(Glu,Tyr 4:1) substrate
measuredEndpoint: IC50

[[record]]
smilesentry = "CS(=O)(=O)O.CS(=O)(=O)O.Cc1ccc(NC(=O)c2ccc(CN3CCN(C)CC3)cc2)cc1Nc1nc(-c2cccnc2)cs1"
targetentity = "Focal adhesion kinase (Homo sapiens, UniProt Q05397)"
measuredendpoint = "IC50"
endpointvalue = "> 10 µM"


====

# targetEntity: KIT D^814V (murine) (Mus musculus, UniProt P05532, D818V)
# procedureText: Ba/F3 cell proliferation (WST-1), KIT D814V
# testParameters: Ba/F3 cells expressing the enzyme, read-out: Cell-based assay IC50, KIT D^814V (murine)
measuredEndpoint: IC50 (µM)

[[record]]
smilesentry = "CS(=O)(=O)O.CS(=O)(=O)O.Cc1ccc(NC(=O)c2ccc(CN3CCN(C)CC3)cc2)cc1Nc1nc(-c2cccnc2)cs1"
targetentity = "KIT D^814V (murine) (Mus musculus, UniProt P05532, D818V)"
unitstext = "µM"
endpointvalue = 3


====

# targetEntity: Jak2 (Homo sapiens, UniProt O60674)
# procedureText: Ba/F3 cell proliferation (WST-1), Jak2
# testParameters: Ba/F3 cells expressing the enzyme, read-out: Cell-based assay IC50, Jak2
measuredEndpoint: IC50 (µM)

[[record]]
smilesentry = "CS(=O)(=O)O.CS(=O)(=O)O.Cc1ccc(NC(=O)c2ccc(CN3CCN(C)CC3)cc2)cc1Nc1nc(-c2cccnc2)cs1"
endpointvalue = 10


====

# targetEntity: Fes (Homo sapiens)
# Construct: Fes (2-822; BC035357); 6xHN (N)
# procedureText: Recombinant kinase ELISA assay, Fes
# testParameters: recombinant human enzyme; ELISA-based assay, poly(Glu,Tyr 4:1) substrate
# Description: Full details for the generation of recombinant human KIT intracellular domain and other protein kinases (including Lyn, platelet derived growth factor receptor β, epidermal growth factor receptor, fibroblast growth factor receptor 1, Src, HCK, PYK, FES, Btk, Bmx, c-Ret, c-Fms, Syk, and c-Met) are provided in the Supplemental Methods (see Supporting Information; Methods S1). […]
measuredEndpoint: IC50

[[record]]
smilesentry = "CS(=O)(=O)O.CS(=O)(=O)O.Cc1ccc(NC(=O)c2ccc(CN3CCN(C)CC3)cc2)cc1Nc1nc(-c2cccnc2)cs1"
measuredendpoint = "IC50"
endpointvalue = "> 10 µM"


====

# targetEntity: Fibroblast growth factor receptor 3 (Homo sapiens)
# procedureText: Recombinant kinase ELISA assay, FGFR3
# Assay type: biochemical
# testParameters: recombinant human enzyme; ELISA-based assay, poly(Glu,Tyr 4:1) substrate
measuredEndpoint: IC50

[[record]]
smilesentry = "CS(=O)(=O)O.CS(=O)(=O)O.Cc1ccc(NC(=O)c2ccc(CN3CCN(C)CC3)cc2)cc1Nc1nc(-c2cccnc2)cs1"
endpointvalue = "> 10 µM"


====

# targetEntity: Tyk2 (Homo sapiens, UniProt P29597)
# Sequence (P29597 whole entry, species assumed): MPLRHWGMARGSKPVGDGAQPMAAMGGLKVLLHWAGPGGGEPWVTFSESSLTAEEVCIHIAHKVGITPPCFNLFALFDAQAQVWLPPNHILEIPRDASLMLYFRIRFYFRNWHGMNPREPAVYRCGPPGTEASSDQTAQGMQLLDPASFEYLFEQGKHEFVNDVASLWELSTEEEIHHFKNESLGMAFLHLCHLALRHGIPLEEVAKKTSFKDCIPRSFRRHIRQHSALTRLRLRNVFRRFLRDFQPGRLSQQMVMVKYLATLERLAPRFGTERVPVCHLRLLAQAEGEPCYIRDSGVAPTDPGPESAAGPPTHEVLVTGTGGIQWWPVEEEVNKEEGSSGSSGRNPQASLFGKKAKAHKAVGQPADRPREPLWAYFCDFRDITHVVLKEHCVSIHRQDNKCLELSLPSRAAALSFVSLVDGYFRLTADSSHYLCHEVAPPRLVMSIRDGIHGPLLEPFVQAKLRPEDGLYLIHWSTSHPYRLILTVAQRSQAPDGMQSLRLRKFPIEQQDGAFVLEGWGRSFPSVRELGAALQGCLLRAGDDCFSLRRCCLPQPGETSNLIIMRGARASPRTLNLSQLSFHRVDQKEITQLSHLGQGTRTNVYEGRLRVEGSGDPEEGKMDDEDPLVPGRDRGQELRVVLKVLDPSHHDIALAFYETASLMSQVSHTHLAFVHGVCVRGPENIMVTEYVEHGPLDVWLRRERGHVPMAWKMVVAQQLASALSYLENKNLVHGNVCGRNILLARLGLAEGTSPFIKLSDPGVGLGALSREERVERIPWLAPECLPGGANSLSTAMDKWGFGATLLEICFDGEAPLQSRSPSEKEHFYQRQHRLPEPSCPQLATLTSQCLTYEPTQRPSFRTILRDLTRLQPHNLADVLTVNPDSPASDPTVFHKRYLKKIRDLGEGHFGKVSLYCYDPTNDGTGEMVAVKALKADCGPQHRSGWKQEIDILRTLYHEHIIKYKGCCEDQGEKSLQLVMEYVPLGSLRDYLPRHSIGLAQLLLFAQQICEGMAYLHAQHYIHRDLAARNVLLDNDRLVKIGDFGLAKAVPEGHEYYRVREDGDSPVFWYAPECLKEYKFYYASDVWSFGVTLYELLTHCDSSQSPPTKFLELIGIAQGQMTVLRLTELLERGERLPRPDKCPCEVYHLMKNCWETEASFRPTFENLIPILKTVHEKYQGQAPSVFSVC
# procedureText: Ba/F3 cell proliferation (WST-1), Tyk2
# testParameters: Ba/F3 cells expressing the enzyme, read-out: Cell-based assay IC50, Tyk2
measuredEndpoint: IC50

[[record]]
compound = "CS(=O)(=O)O.CS(=O)(=O)O.Cc1ccc(NC(=O)c2ccc(CN3CCN(C)CC3)cc2)cc1Nc1nc(-c2cccnc2)cs1 [masitinib]"
targetentity = "Tyk2 (Homo sapiens, UniProt P29597)"
endpointvalue = "9 µM"


====

# System: mastocytoma cell lines carrying KIT juxtamembrane mutants
# procedureText: Proliferation of mastocytoma cell lines carrying KIT juxtamembrane mutants (summary)
# Assay type: cell-based
# testParameters: summary over cell lines
pIC50: −log10 of the molar value.
measuredEndpoint: pIC50

[[record]]
smilesentry = "CS(=O)(=O)O.CS(=O)(=O)O.Cc1ccc(NC(=O)c2ccc(CN3CCN(C)CC3)cc2)cc1Nc1nc(-c2cccnc2)cs1"
targetentity = "mastocytoma cell lines carrying KIT juxtamembrane mutants"
endpointvalue = "7.52 to 8.00"


====

# targetEntity: PDGFRβ (Homo sapiens, UniProt P09619)
# procedureText: Ba/F3 cell proliferation (WST-1), PDGFRβ
# Set-up: expressed in transfected cells; host or cells: Ba/F3 (general description of the cell system; not repeated for this kinase)
# testParameters: Ba/F3 cells expressing the enzyme, read-out: Cell-based assay IC50, PDGFRβ
measuredEndpoint: IC50 (µM)

[[record]]
smilesentry = "CS(=O)(=O)O.CS(=O)(=O)O.Cc1ccc(NC(=O)c2ccc(CN3CCN(C)CC3)cc2)cc1Nc1nc(-c2cccnc2)cs1"
endpointvalue = 0.05


====

# targetEntity: TrkB (Homo sapiens, UniProt Q16620)
# testParameters: read-out: Cell-based assay IC50, TrkB; Ba/F3 cells expressing the enzyme; cell proliferation, WST-1
pIC50: −log10 of the molar value.
measuredEndpoint: pIC50

[[record]]
smilesentry = "CS(=O)(=O)O.CS(=O)(=O)O.Cc1ccc(NC(=O)c2ccc(CN3CCN(C)CC3)cc2)cc1Nc1nc(-c2cccnc2)cs1"
endpointvalue = 5.15


====

# targetEntity: Flt3 (Homo sapiens, UniProt P36888)
# procedureText: Recombinant kinase ELISA assay, Flt3
# Assay type: biochemical
# testParameters: recombinant human enzyme; ELISA-based assay, poly(Glu,Tyr 4:1) substrate
# Description: Full details for the generation of recombinant human KIT intracellular domain and other protein kinases (including Lyn, platelet derived growth factor receptor β, epidermal growth factor receptor, fibroblast growth factor receptor 1, Src, HCK, PYK, FES, Btk, Bmx, c-Ret, c-Fms, Syk, and c-Met) are provided in the Supplemental Methods (see Supporting Information; Methods S1). […]
pIC50: −log10 of the molar value.
measuredEndpoint: pIC50

[[record]]
molecule = "CS(=O)(=O)O.CS(=O)(=O)O.Cc1ccc(NC(=O)c2ccc(CN3CCN(C)CC3)cc2)cc1Nc1nc(-c2cccnc2)cs1 [masitinib]"
endpointvalue = "< 5.00"


Origin of the recorded values: paper PMC2746281
